Provide the recorded inhibition at 30 µM for the entries that follow.
Biological target: activated IGF-1R (Homo sapiens)
Construct: purchased Millipore 14-802
Sequence (P08069 31-1367): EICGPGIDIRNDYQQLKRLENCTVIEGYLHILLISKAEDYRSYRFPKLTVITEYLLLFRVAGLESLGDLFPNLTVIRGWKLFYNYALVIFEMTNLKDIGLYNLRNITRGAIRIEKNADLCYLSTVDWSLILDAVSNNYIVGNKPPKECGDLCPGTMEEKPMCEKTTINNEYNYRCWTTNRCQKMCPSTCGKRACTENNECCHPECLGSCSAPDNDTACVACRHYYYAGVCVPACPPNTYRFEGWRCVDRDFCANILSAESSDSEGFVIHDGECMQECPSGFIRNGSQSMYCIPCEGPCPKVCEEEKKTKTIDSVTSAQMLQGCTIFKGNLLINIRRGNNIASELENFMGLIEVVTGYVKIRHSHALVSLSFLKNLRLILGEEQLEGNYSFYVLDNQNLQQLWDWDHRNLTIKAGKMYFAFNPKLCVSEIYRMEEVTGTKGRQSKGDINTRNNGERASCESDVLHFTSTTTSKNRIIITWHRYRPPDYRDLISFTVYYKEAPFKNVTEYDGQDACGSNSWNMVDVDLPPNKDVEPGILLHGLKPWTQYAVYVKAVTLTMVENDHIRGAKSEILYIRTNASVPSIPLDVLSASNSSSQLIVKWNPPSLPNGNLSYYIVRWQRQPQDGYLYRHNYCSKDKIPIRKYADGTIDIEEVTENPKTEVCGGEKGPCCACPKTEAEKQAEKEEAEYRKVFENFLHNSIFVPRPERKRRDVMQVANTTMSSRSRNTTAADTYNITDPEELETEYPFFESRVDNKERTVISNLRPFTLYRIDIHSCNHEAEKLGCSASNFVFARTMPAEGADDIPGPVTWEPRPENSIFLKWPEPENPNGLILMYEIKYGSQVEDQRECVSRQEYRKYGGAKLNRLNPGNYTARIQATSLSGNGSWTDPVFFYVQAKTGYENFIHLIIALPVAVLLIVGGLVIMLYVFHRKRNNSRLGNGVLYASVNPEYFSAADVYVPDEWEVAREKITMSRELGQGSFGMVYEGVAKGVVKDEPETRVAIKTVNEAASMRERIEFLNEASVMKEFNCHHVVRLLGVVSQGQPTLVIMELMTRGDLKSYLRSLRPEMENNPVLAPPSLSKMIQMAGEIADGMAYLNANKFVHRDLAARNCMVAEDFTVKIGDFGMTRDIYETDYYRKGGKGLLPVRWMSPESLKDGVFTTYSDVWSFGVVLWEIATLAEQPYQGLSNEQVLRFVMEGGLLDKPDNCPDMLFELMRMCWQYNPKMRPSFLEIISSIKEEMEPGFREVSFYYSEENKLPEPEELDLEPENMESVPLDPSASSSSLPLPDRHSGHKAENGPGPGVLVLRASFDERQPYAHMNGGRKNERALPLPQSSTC
Assay: In vitro IGF-1R enzymatic assay (ADP-Glo)
Type: biochemical
Details: compound 30 μM, ATP 100 μM

compound: CC(=O)N1CCN(C(=O)[C@@H]2CCCN2c2nc3c(c(Nc4cc(C5CCCC5)n[nH]4)n2)CCC3)CC1 [137b]
result: 43%
//
compound: CC1(C)CCN(C(=O)[C@@H]2CCCN2c2nc3c(c(Nc4cc(C5CCCC5)n[nH]4)n2)CCC3)CC1 [135b]
result: 82%
//
compound: CC(C)c1cc(Nc2nc(N3CCC[C@@H]3C(=O)N3CCCC3)nc3c2CCC3)n[nH]1 [138a]
result: 95%

Could you report inhibition at 30 µM for every entry in the following list?
1. CN(C)C(=O)[C@@H]1CCCN1c1nc2c(c(Nc3cc(C4CCOCC4)[nH]n3)n1)CCC2 [91b]
2. O=C([C@@H]1CCCN1c1nc2c(c(Nc3cc(C4CCCC4)[nH]n3)n1)CCC2)N1CC(F)(F)C(F)(F)C1 [110b]
3. CC(C)c1cc(Nc2nc(N3CCC[C@H]3C(=O)N3CC(F)(F)C(F)(F)C3)nc3c2CCC3)n[nH]1 [112b]

["21%", "68%", "86%"]

* * *

Target: Trk A (Homo sapiens, UniProt P04629)
Sequence (P04629 33-796): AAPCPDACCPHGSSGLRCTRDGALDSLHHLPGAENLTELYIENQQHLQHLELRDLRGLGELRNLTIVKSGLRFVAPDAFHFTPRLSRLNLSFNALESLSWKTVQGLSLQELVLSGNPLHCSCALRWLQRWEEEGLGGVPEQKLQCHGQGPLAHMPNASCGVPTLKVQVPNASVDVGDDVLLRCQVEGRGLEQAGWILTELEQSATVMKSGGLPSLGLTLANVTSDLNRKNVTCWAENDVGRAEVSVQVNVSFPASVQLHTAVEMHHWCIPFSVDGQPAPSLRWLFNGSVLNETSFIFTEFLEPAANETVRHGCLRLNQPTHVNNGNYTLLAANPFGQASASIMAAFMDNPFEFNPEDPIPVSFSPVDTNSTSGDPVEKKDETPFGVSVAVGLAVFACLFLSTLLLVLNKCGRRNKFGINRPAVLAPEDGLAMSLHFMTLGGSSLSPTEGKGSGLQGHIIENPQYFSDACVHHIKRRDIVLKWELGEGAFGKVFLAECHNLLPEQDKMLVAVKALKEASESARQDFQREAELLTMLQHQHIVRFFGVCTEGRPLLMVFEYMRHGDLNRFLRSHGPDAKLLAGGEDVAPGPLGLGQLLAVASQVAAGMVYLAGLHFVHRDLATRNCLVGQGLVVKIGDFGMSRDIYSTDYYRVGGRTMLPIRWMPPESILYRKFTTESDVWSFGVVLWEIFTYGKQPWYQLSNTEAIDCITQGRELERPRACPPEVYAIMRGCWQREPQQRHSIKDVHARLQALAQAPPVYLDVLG
Assay: HotSpot kinase assay against Trk A
Type: biochemical
Conditions: HotSpot 33P assay, ATP 10 μM-30 μM
assay_readout: pIC50
One number for each entry, as −log10 of the molar value.

compound: CC(C)c1cc(Nc2nc(N3CCC[C@@H]3C(=O)N3CC(F)(F)C(F)(F)C3)nc3c2CCC3)n[nH]1 [112a]
assay_readout: pIC50
readout_number: 6.17

compound: CC(C)c1cc(Nc2nc(N3CCC[C@@H]3C(=O)N3CCC(F)(F)C3)nc3c2CCC3)n[nH]1 [139a]
assay_readout: pIC50
readout_number: 6.17

compound: CN1CCN(C(=O)[C@@H]2CCCN2c2nc3c(c(Nc4cc(C5CCCC5)[nH]n4)n2)CCC3)CC1 [134b]
assay_readout: pIC50
readout_number: 6.47

Shifting focus to the compound that follows.
Return pIC50 for the following compound: CC1(C)CCN(C(=O)[C@@H]2CCCN2c2nc3c(c(Nc4cc(C5CCCC5)n[nH]4)n2)CCC3)CC1 [135b]
7.92

* * *

Target: activated IR (Homo sapiens, UniProt P06213)
Construct: purchased Millipore 14-803
Sequence (P06213 28-1382): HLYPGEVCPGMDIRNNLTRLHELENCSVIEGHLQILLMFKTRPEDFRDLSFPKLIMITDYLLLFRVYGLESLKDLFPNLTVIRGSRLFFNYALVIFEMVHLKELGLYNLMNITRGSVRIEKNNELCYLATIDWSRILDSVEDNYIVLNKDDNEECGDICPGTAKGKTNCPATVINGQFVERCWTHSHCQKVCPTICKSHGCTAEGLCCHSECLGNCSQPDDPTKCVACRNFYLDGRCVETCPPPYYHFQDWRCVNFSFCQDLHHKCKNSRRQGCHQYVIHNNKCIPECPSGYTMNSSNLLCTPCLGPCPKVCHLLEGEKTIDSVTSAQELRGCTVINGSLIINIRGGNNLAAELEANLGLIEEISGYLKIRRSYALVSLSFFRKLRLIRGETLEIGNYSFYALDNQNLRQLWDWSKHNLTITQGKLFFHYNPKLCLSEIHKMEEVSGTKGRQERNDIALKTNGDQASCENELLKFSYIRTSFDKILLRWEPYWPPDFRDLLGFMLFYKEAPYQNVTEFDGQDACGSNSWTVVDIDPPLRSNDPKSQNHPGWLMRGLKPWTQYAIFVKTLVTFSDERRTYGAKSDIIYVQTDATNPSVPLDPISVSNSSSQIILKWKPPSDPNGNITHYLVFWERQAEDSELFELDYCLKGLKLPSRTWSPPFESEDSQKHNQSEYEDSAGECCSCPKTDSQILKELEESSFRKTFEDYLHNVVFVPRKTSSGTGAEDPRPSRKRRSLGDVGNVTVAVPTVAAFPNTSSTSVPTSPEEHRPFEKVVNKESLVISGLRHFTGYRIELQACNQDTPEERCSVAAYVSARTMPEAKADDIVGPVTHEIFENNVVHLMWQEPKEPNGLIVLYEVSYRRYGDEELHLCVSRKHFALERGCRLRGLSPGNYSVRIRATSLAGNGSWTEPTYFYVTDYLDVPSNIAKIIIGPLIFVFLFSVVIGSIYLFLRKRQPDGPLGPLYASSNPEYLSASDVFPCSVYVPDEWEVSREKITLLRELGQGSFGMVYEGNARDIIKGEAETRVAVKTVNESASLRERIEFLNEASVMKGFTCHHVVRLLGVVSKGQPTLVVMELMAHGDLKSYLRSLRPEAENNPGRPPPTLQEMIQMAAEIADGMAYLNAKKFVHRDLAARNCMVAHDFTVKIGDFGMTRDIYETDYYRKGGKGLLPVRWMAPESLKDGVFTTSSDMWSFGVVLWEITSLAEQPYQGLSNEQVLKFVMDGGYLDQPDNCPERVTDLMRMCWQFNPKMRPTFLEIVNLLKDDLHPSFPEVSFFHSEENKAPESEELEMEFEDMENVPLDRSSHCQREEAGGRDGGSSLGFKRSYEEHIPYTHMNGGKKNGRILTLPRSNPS
Assay: In vitro IR enzymatic assay (ADP-Glo)
Assay type: biochemical
Details: compound 30 μM, ATP 50 μM
Provide the recorded inhibition at 30 µM for the entries that follow.
Give bare numbers, in %.

compound: CC1(C)CCN(C(=O)[C@H]2CCCN2c2nc3c(c(Nc4cc(C5CCCC5)n[nH]4)n2)CCC3)CC1 [141a]
inhibition at 30 µM / %: 97
--
compound: CN(C)C(=O)[C@H]1CCCN1c1nc2c(c(Nc3cc(C4CCOCC4)[nH]n3)n1)CCC2 [91a]
inhibition at 30 µM / %: 45
--
compound: CN(C(=O)[C@@H]1CCCN1c1nc2c(c(Nc3cc(C4CCCC4)n[nH]3)n1)CCC2)c1nccs1 [70b]
inhibition at 30 µM / %: 97
--
compound: O=C([C@@H]1CCCN1c1nc2c(c(Nc3cc(C4CCCC4)[nH]n3)n1)CCC2)N1CCC(F)(F)C1 [109b]
inhibition at 30 µM / %: 86

Could you report inhibition at 30 µM for every entry in the following list?
1. CC(C)c1cc(Nc2nc(N3CCC[C@H]3C(=O)N3CCCC3)nc3c2CCC3)n[nH]1 [138b]
2. CC(C)c1cc(Nc2nc(N3CCC[C@@H]3C(=O)N3CCCC3)nc3c2CCC3)n[nH]1 [138a]
3. CN1CCN(C(=O)[C@@H]2CCCN2c2nc3c(c(Nc4cc(C5CCCC5)n[nH]4)n2)CCC3)CC1=O [136b]
4. O=C([C@@H]1CCCN1c1nc2c(c(Nc3cc(C4CCCC4)[nH]n3)n1)CCC2)N1CC(F)(F)C(F)(F)C1 [110b]

92
96
72
74
